Molecular target: SARS-CoV-2 M^pro (Severe acute respiratory syndrome coronavirus 2)
Construct: also known as 3-chymotrypsin-like cysteine protease (3CL^pro) and nonstructural protein 5 (nsp5)
Assay: biochemical
Type: binding
Conditions: read-out: ka (kinetic association)
*1 amine or outer side, *2 acyl side, *3 side chain or, on linkers, in order; H or OH if unused. Where a SMILES comes first, the peptide text is derived from it. Bridges are numbered along the chain shown (N, C = ends). [ ]: non-standard residue; d: D form. X1 = O=C([C@@H]1CCC[C@@H]1N[*:1])[*:2]
METRIC: kon (M⁻¹ s⁻¹)
Expressed in M⁻¹ s⁻¹, but write only the number.

// CC(C)C[C@@H]1NC(=O)[C@H](CO)NC(=O)[C@H](CCCNC(=N)N)NC(=O)[C@H](Cc2ccccc2)NC(=O)[C@@H]2CCC[C@@H]2NC(=O)[C@H](Cc2c[nH]cn2)NC(=O)[C@H](Cc2ccccc2)NC(=O)[C@@H](Cc2ccc(O)cc2)NC(=O)CSC[C@H](C(N)=O)NC(=O)CNC(=O)[C@H](Cc2ccccc2)NC(=O)[C@H](C(C)C)NC(=O)[C@H](Cc2ccccc2)NC1=O [BM6, ^AcyFHβ^1FRSLFVFGc-NH2] ({CH2CO}-[dY]FH[X1]FRSLFVFG[dC]-NH2; thioether N-13) : kon value = 260000
